Entries and their measured Activity follow.
system: HepG2; assay: Cytotoxicity against human HepG2 cells incubated for 24 hrs by MTT assay; format: cell-based; settings: hepg2, 24 h
MEASUREMENT KIND: Activity

>  <CPD SMILES>
Clc1cccc2c(Cc3cc4ccccc4[nH]3)c[nH]c12

>  <OBS VALUE>
> 50 µM

$$$$
>  <CPD SMILES>
Clc1ccc2[nH]cc(Cc3cc4ccccc4[nH]3)c2c1

>  <OBS VALUE>
> 50 µM

$$$$
>  <CPD SMILES>
Cc1ccc(S(=O)(=O)n2c(Cc3cn(C)c4ccccc34)c(-c3ccccc3)c3ccccc32)cc1

>  <OBS VALUE>
48 µM

$$$$
>  <CPD SMILES>
Cc1ccc(S(=O)(=O)n2c(Cc3c[nH]c4c(Cl)cccc34)c(C)c3ccccc32)cc1

>  <OBS VALUE>
> 50 µM

$$$$
>  <CPD SMILES>
Fc1cccc2c(Cc3cc4ccccc4[nH]3)c[nH]c12

>  <OBS VALUE>
38 µM

$$$$
>  <CPD SMILES>
Cc1ccc(S(=O)(=O)n2c(Cc3cn(C)c4ccccc34)c(C)c3ccccc32)cc1

>  <OBS VALUE>
45 µM

$$$$
>  <CPD SMILES>
Cc1cccc2c(Cc3cc4ccccc4[nH]3)c[nH]c12

>  <OBS VALUE>
> 50 µM

$$$$
>  <CPD SMILES>
Fc1ccc2[nH]c(Cc3c[nH]c4c(Cl)cccc34)cc2c1

>  <OBS VALUE>
> 50 µM

$$$$
>  <CPD SMILES>
Cc1ccc(S(=O)(=O)n2c(Cc3cn(C)c4ccccc34)c(C(C)C)c3ccccc32)cc1

>  <OBS VALUE>
> 50 µM

$$$$
>  <CPD SMILES>
Cc1ccc2c(Cc3cc4ccccc4[nH]3)c[nH]c2c1

>  <OBS VALUE>
45 µM

$$$$
>  <CPD SMILES>
Cc1ccc2[nH]cc(Cc3cc4ccccc4[nH]3)c2c1

>  <OBS VALUE>
> 50 µM

$$$$

----------
target: Proprotein convertase subtilisin/kexin type 9 (Homo sapiens, UniProt Q8NBP7); assay: Inhibition of human PCSK9 in HepG2 cells incubated for 48 hrs by AlphaLISA assay; type: cell-based; settings: read-out: IC50
Sequence (Q8NBP7 31-152 limits assumed): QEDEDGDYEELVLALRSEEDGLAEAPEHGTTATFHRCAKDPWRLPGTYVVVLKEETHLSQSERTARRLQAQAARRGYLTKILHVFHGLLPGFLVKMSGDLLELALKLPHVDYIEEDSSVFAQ
Sequence (Q8NBP7 153-692 limits assumed): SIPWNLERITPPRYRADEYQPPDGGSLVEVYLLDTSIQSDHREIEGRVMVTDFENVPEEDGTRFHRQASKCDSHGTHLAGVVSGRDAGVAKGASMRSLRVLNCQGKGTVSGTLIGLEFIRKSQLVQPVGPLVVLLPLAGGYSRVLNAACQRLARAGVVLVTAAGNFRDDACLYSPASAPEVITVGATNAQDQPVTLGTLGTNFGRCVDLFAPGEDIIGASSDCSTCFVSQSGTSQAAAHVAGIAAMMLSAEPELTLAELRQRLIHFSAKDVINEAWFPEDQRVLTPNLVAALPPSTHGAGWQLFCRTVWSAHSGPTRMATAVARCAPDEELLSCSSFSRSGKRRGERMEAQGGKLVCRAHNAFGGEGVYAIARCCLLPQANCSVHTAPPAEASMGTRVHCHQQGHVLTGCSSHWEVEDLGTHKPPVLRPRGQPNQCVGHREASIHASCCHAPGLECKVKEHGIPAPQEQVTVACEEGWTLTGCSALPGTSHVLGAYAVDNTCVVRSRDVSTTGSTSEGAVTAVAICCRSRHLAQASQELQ

>  <CPD SMILES>
Cc1ccc(S(=O)(=O)n2c(Cc3cn(C)c4ccccc34)c(C(C)C)c3ccccc32)cc1

>  <TEST TARGET>
Proprotein convertase subtilisin/kexin type 9 (Homo sapiens, UniProt Q8NBP7)

>  <UNIT>
µM

>  <IC50>
1.1

$$$$
>  <CPD SMILES>
Cc1cccc2c(Cc3cc4ccccc4[nH]3)c[nH]c12

>  <TEST TARGET>
Proprotein convertase subtilisin/kexin type 9 (Homo sapiens, UniProt Q8NBP7)

>  <UNIT>
µM

>  <IC50>
0.9

$$$$
>  <CPD SMILES>
Cc1ccc2c(Cc3cc4ccccc4[nH]3)c[nH]c2c1

>  <TEST TARGET>
Proprotein convertase subtilisin/kexin type 9 (Homo sapiens, UniProt Q8NBP7)

>  <UNIT>
µM

>  <IC50>
1.4

$$$$
>  <CPD SMILES>
Fc1cccc2c(Cc3cc4ccccc4[nH]3)c[nH]c12

>  <TEST TARGET>
Proprotein convertase subtilisin/kexin type 9 (Homo sapiens, UniProt Q8NBP7)

>  <UNIT>
µM

>  <IC50>
0.3

$$$$
>  <CPD SMILES>
Clc1ccc2[nH]cc(Cc3cc4ccccc4[nH]3)c2c1

>  <TEST TARGET>
Proprotein convertase subtilisin/kexin type 9 (Homo sapiens, UniProt Q8NBP7)

>  <UNIT>
µM

>  <IC50>
10

$$$$
>  <CPD SMILES>
Fc1ccc2[nH]c(Cc3c[nH]c4c(Cl)cccc34)cc2c1

>  <TEST TARGET>
Proprotein convertase subtilisin/kexin type 9 (Homo sapiens, UniProt Q8NBP7)

>  <UNIT>
µM

>  <IC50>
0.25

$$$$
>  <CPD SMILES>
Clc1cccc2c(Cc3cc4ccccc4[nH]3)c[nH]c12

>  <TEST TARGET>
Proprotein convertase subtilisin/kexin type 9 (Homo sapiens, UniProt Q8NBP7)

>  <UNIT>
µM

>  <IC50>
2.8

$$$$
>  <CPD SMILES>
Cc1ccc(S(=O)(=O)n2c(Cc3cn(C)c4ccccc34)c(C)c3ccccc32)cc1

>  <TEST TARGET>
Proprotein convertase subtilisin/kexin type 9 (Homo sapiens, UniProt Q8NBP7)

>  <UNIT>
µM

>  <IC50>
1.5

$$$$
>  <CPD SMILES>
Cc1ccc2[nH]cc(Cc3cc4ccccc4[nH]3)c2c1

>  <TEST TARGET>
Proprotein convertase subtilisin/kexin type 9 (Homo sapiens, UniProt Q8NBP7)

>  <UNIT>
µM

>  <IC50>
5.6

$$$$
>  <CPD SMILES>
Cc1ccc(S(=O)(=O)n2c(Cc3c[nH]c4c(Cl)cccc34)c(C)c3ccccc32)cc1

>  <TEST TARGET>
Proprotein convertase subtilisin/kexin type 9 (Homo sapiens, UniProt Q8NBP7)

>  <UNIT>
µM

>  <IC50>
2.3

$$$$
>  <CPD SMILES>
Cc1ccc(S(=O)(=O)n2c(Cc3cn(C)c4ccccc34)c(-c3ccccc3)c3ccccc32)cc1

>  <TEST TARGET>
Proprotein convertase subtilisin/kexin type 9 (Homo sapiens, UniProt Q8NBP7)

>  <UNIT>
µM

>  <IC50>
2.3

$$$$

----------
target: Proprotein convertase subtilisin/kexin type 9 (Homo sapiens); test: Inhibition of human PCSK9 in HepG2 cells incubated for 24 hrs followed by medium replenishment and measured after 24 hrs by ELISA; format: cell-based

>  <CPD SMILES>
Fc1ccc2[nH]c(Cc3c[nH]c4c(F)cccc34)cc2c1

>  <TEST TARGET>
Proprotein convertase subtilisin/kexin type 9 (Homo sapiens)

>  <UNIT>
nM

>  <IC50>
202

$$$$
